The measured values listed here are drawn from patent US20250313535A1.

target-entity: α4β1 integrin (Homo sapiens (Human), UniProt P05556+P13612)
Sequence (P13612 34-1032): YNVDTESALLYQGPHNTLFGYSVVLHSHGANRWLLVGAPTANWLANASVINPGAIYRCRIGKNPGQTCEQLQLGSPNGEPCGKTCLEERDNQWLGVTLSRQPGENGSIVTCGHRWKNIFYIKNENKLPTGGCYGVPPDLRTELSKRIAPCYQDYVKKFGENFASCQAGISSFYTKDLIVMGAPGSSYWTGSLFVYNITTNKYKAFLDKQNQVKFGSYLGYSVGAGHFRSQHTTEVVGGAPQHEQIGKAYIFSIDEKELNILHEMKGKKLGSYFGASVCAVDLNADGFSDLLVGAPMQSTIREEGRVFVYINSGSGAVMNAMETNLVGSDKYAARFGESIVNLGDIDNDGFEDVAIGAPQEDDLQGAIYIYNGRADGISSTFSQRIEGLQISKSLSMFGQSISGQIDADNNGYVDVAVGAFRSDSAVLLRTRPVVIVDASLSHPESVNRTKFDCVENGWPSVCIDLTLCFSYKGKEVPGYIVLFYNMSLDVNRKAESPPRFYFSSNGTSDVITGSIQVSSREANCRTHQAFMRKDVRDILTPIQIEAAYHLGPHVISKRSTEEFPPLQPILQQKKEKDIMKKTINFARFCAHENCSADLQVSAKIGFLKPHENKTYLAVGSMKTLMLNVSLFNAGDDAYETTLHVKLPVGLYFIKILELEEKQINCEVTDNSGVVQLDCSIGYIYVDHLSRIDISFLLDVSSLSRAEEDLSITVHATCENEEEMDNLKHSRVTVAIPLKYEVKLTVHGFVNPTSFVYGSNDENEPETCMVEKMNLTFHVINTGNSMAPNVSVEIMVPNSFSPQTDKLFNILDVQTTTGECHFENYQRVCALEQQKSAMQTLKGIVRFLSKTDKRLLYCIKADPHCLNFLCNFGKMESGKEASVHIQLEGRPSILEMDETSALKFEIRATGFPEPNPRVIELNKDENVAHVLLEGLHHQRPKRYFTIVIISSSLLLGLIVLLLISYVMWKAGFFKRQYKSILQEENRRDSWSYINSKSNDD
Sequence (P05556 21-798): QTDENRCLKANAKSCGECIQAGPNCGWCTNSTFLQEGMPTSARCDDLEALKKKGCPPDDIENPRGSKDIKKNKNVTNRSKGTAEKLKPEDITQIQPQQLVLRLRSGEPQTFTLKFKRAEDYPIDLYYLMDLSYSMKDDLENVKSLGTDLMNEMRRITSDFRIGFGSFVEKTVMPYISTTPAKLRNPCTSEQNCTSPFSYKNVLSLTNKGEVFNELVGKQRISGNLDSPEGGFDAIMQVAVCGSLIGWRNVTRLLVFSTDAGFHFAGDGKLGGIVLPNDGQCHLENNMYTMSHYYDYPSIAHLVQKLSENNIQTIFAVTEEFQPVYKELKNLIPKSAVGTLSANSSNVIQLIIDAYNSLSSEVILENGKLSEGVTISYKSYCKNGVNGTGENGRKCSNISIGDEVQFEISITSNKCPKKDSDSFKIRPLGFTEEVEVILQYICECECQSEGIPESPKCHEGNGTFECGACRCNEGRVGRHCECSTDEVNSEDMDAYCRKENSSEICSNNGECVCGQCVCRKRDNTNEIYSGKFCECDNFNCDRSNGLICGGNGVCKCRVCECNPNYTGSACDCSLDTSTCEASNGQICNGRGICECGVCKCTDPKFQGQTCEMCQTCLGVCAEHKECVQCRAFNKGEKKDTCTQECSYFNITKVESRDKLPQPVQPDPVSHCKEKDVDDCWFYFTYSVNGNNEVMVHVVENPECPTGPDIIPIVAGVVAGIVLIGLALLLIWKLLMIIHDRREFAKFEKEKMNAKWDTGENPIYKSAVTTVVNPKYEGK
procedure-details: Integrin Adhesion Assay: Protocol 2 (VCAM-coated plate, Jurkat cells, CellTiter GLO readout)
Type: cell-based
setup-conditions: determined by at least one of the assays described (protocol not specified)
We begin with a simple list: items and their reported IC50.

1) Cn1cc(CCN2CC(F)C2)c(=O)n(-c2cccc3c(C[C@H](NC(=O)c4c(F)cccc4F)C(=O)O)cccc23)c1=O [Compound 118] : > 1000 nM

The compound listed as Cn1ccc(=O)n(-c2cccc3c(C[C@H](NC(=O)c4c(F)cc(C#N)cc4F)C(=O)O)cccc23)c1=O [Compound 131] has a reported IC50 of 100 to 1000 nM

The compound listed as CC(C)C1(C(=O)N[C@@H](Cc2cccc3c(-n4c(=O)ccn(C)c4=O)cccc23)C(=O)O)CCN(CC(F)(F)F)CC1 [Compound 153] has a reported IC50 of 100 to 1000 nM
